- Tested on: Escherichia coli TOP10;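 further: peptides expressed intracellularly from a pBAD plasmid library in pooled LB shake-flask culture, induced with 0.3% L-arabinose, DNA abundance read by NGS, three biological replicates, DESeq2 with apeglm shrinkage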
- assay.notes: shrunken log2 fold change of peptide-encoding DNA abundance (4.5 h post-induction vs induction); higher = less antimicrobial activity (less host growth inhibition)
- study.conditions: time post-induction: 4.5 h; library: site-saturation at positions 5, 18, 19, 20
reported.property: shrunken log2 fold change
Respond using a number only.

Please review the following examples before continuing.
RRIRMRPPRLPRPRPRPIHYPRP
-0.689
RRIRDRPPRLPRPRPRPDCAPRP
1.41
RRIRPRPPRLPRPRPRPIGVPRP
0.108
RRIRKRPPRLPRPRPRPGWNPRP
0.106
RRIRYRPPRLPRPRPRPRNKPRP
-0.661

Fill in the blank: the reported shrunken log2 fold change of RRIRDRPPRLPRPRPRPRQHPRP is ____.
0.153

Which shrunken log2 fold change is listed for RRIRERPPRLPRPRPRPMYRPRP ?
-0.273

What value of measured shrunken log2 fold change is listed for RRIRVRPPRLPRPRPRPANTPRP ?
-0.0315

These measurements were taken from the supplement of paper PMC9112550.
